The measurements presented in this section are drawn from ChEMBL document CHEMBL1126581.

Where a SMILES comes first, the peptide text is derived from it. [ ]: non-standard residue; d: D form. The star is where a group is joined. dHpg = N[C@@H](C(=O)O)c1ccc(O)cc1; dChg = N[C@@H](C(=O)O)C1CCCCC1; dPhg = N[C@@H](C(=O)O)c1ccccc1; Boc = CC(C)(C)OC(=O)*
These compounds were tested on Prothrombin (Bos taurus) (UniProt P00735); IC50 is the recorded read-out.
Don't forget the unit after the value.

Past entries and their recorded results:
CC(C)(C)OC(=O)N[C@@H](C(=O)N1CCC[C@H]1C(=O)N[C@H](C=O)CCCN=C(N)N)c1ccc(O)cc1 (Boc-[dHpg]-Pro-Arg-aldehyde) | 89 nM
CC(C)(C)OC(=O)N[C@@H](C(=O)N1CCC[C@H]1C(=O)NC(C=O)CCCN=C(N)N)c1ccc2ccccc2c1 (stereo not given in full) | 18 nM
CC(C)(C)OC(=O)N[C@@H](C(=O)N1CCC[C@H]1C(=O)N[C@H](C=O)CCCN=C(N)N)C1CCCCC1 (Boc-[dChg]-Pro-Arg-aldehyde) | 12 nM
CC[C@H](C(=O)N1CCC[C@H]1C(=O)NC(C=O)CCCNC(=N)N)c1ccccc1 (stereo not given in full) | 130 nM
CC(C)(C)OC(=O)N[C@H](C(=O)N1CCC[C@H]1C(=O)N[C@H](C=O)CCCN=C(N)N)c1ccc(F)cc1 | 85 nM
CC(C)(C)OC(=O)N[C@H](C(=O)N1CCC[C@H]1C(=O)NC(C=O)CCCNC(=N)N)c1cccc2ccccc12 (stereo not given in full) | 55 nM

Moving on to another compound below.
Exam item: Which value of IC50 has been reported for CC(C)(C)OC(=O)N[C@@H](C(=O)N1CCC[C@H]1C(=O)N[C@H](C=O)CCCN=C(N)N)c1ccccc1 (Boc-[dPhg]-Pro-Arg-aldehyde) in the records?
Marked response: 16 nM

* * *

Quick reference: Selectivity ratio of the listed items.
test: Selectivity was expressed as the ratio is IC 50 of plasmin / thrombin
Where a SMILES comes first, the peptide text is derived from it. [ ]: non-standard residue; d: D form. The star is where a group is joined. dHpg = N[C@@H](C(=O)O)c1ccc(O)cc1; dPhg = N[C@@H](C(=O)O)c1ccccc1; Boc = CC(C)(C)OC(=O)*

CC(C)(C)OC(=O)N[C@@H](C(=O)N1CCC[C@H]1C(=O)N[C@H](C=O)CCCN=C(N)N)c1ccc(O)cc1 (Boc-[dHpg]-Pro-Arg-aldehyde) | 1
CC(C)(C)OC(=O)NC(C(=O)N1CCC[C@H]1C(=O)NC(C=O)CCCN=C(N)N)c1ccc(Cl)c(Cl)c1 (stereo partly specified) | 6

Exam item: Which value of Selectivity ratio has been reported for C[C@@H](C(=O)N1CCC[C@H]1C(=O)NC(C=O)CCCN=C(N)N)c1ccccc1 (stereo partly specified) in the records?
Marked response: 8

Exam item: What do we get for CC(C)(C)OC(=O)NC(C(=O)N1CCC[C@H]1C(=O)NC(C=O)CCCN=C(N)N)c1cccc(C(F)(F)F)c1 (stereo partly specified) ?
Marked response: 5

Exam item: What do we get for N=C(N)NCCC[C@@H](C=O)NC(=O)[C@@H]1CCCN1C(=O)C1CCc2ccccc2N1 (stereo partly specified) ?
Marked response: 5

Exam item: What do we get for CC(C)(C)OC(=O)N[C@@H](C(=O)N1CCC[C@H]1C(=O)NC(C=O)CCCN=C(N)N)c1ccc2ccccc2c1 (stereo partly specified) ?
Marked response: 3

Exam item: What do we get for CC(C)(C)OC(=O)N[C@@H](C(=O)N1CCC[C@H]1C(=O)N[C@H](C=O)CCCN=C(N)N)c1ccccc1 (Boc-[dPhg]-Pro-Arg-aldehyde) ?
Marked response: 6

* * *

experiment: Selectivity was expressed as the ratio is IC 50 of t-PA / thrombin
Where a SMILES comes first, the peptide text is derived from it. [ ]: non-standard residue; d: D form. The star is where a group is joined. dHpg = N[C@@H](C(=O)O)c1ccc(O)cc1; dChg = N[C@@H](C(=O)O)C1CCCCC1; dPhg = N[C@@H](C(=O)O)c1ccccc1; Boc = CC(C)(C)OC(=O)*
Selectivity ratio below 900 gives label 0; Selectivity ratio at or above it gives label 1.

Example results:
CO[C@H](C(=O)N1CCC[C@H]1C(=O)NC(C=O)CCCN=C(N)N)c1ccccc1 (some centres not stated) | label 1
NC(N)=NCCC[C@@H](C=O)NC(=O)[C@@H]1CCCN1C(=O)[C@H](N)c1ccccc1 (H-[dPhg]-Pro-Arg-aldehyde) | label 1
CC(C)(C)OC(=O)N[C@H](Cc1ccccc1)C(=O)N1CCC[C@H]1C(=O)N[C@H](C=O)CCCN=C(N)N | label 0
CC(C)(C)OC(=O)N[C@@H](C(=O)N1CCC[C@H]1C(=O)N[C@H](C=O)CCCN=C(N)N)C1CCCCC1 (Boc-[dChg]-Pro-Arg-aldehyde) | label 0
N=C(N)NCCC[C@@H](C=O)NC(=O)[C@@H]1CCCN1C(=O)C1CCc2ccccc2N1 (some centres not stated) | label 0

Exam item: Decide: is the reported value of Selectivity ratio for CC(C)(C)OC(=O)N[C@H](C(=O)N1CCC[C@H]1C(=O)N[C@H](C=O)CCCN=C(N)N)c1ccc(F)cc1 equal to or greater than 900?
Marked response: label 1

Exam item: What do we get for CC(C)(C)OC(=O)N[C@@H](C(=O)N1CCC[C@H]1C(=O)N[C@H](C=O)CCCN=C(N)N)c1ccccc1 (Boc-[dPhg]-Pro-Arg-aldehyde) ?
Marked response: label 0

Exam item: What do we get for CC(C)(C)OC(=O)N[C@@H](C(=O)N1CCC[C@H]1C(=O)N[C@H](C=O)CCCN=C(N)N)c1ccc(O)cc1 (Boc-[dHpg]-Pro-Arg-aldehyde) ?
Marked response: label 0

Exam item: What do we get for CC(C)(C)OC(=O)NC(C(=O)N1CCC[C@H]1C(=O)NC(C=O)CCCN=C(N)N)c1ccc(Cl)c(Cl)c1 (some centres not stated) ?
Marked response: label 1

* * *

These compounds were tested on Coagulation factor X (Bos taurus) (UniProt P00743); IC50 is the recorded read-out.
Sequence (P00743 whole entry, looked up): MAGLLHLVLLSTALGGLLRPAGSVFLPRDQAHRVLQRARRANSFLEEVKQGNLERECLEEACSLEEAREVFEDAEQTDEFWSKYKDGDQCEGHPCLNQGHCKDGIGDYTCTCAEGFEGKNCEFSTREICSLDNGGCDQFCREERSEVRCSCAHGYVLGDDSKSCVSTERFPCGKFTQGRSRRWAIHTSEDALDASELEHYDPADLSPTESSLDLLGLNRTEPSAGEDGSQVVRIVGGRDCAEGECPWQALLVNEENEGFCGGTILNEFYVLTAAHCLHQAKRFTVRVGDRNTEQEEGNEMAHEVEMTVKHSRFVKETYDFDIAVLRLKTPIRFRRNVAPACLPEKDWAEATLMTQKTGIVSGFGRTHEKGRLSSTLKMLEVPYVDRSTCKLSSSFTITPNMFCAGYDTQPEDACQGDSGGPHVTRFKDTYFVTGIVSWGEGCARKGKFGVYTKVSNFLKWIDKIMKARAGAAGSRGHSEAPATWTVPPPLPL
Where a SMILES comes first, the peptide text is derived from it. [ ]: non-standard residue; d: D form. The star is where a group is joined. dHpg = N[C@@H](C(=O)O)c1ccc(O)cc1; dChg = N[C@@H](C(=O)O)C1CCCCC1; dPhg = N[C@@H](C(=O)O)c1ccccc1; Boc = CC(C)(C)OC(=O)*
// units = nM; emit number, no label

CC(C)(C)OC(=O)N[C@@H](C(=O)N1CCC[C@H]1C(=O)N[C@H](C=O)CCCN=C(N)N)c1ccc(O)cc1 (Boc-[dHpg]-Pro-Arg-aldehyde) | 200
CC(C)(C)OC(=O)N[C@@H](C(=O)N1CCC[C@H]1C(=O)N[C@H](C=O)CCCN=C(N)N)c1ccc(F)cc1 | 1600
CN[C@@H](C(=O)N1CCC[C@H]1C(=O)N[C@H](C=O)CCCNC(=N)N)c1ccccc1 | 2200
N=C(N)NCCC[C@@H](C=O)NC(=O)[C@@H]1CCCN1C(=O)C1CCc2ccccc2N1 (stereo not given in full) | 12000

Exam item: Which value of IC50 has been reported for NC(N)=NCCC[C@@H](C=O)NC(=O)[C@@H]1CCCN1C(=O)[C@H](N)c1ccccc1 (H-[dPhg]-Pro-Arg-aldehyde) in the records?
Marked response: 1600

Exam item: What do we get for N=C(N)NCCC[C@@H](C=O)NC(=O)[C@@H]1CCCN1C(=O)[C@H]1Cc2ccccc2CN1 ?
Marked response: 4100

Exam item: What do we get for CC(C)(C)OC(=O)N[C@H](C(=O)N1CCC[C@H]1C(=O)N[C@H](C=O)CCCN=C(N)N)c1ccc(F)cc1 ?
Marked response: 6700

Exam item: What do we get for CC(C)(C)OC(=O)N[C@@H](C(=O)N1CCC[C@H]1C(=O)N[C@H](C=O)CCCN=C(N)N)c1ccccc1 (Boc-[dPhg]-Pro-Arg-aldehyde) ?
Marked response: 260

Exam item: What do we get for CC(C)(C)OC(=O)N[C@@H](C(=O)N1CCC[C@H]1C(=O)N[C@H](C=O)CCCN=C(N)N)C1CCCCC1 (Boc-[dChg]-Pro-Arg-aldehyde) ?
Marked response: 81

Exam item: What do we get for CC(C)(C)OC(=O)N[C@@H](C(=O)N1CCC[C@H]1C(=O)N[C@H](C=O)CCCN=C(N)N)c1ccsc1 ?
Marked response: 190

* * *

experiment: Selectivity was expressed as the ratio is IC 50 of plasmin / thrombin
Where a SMILES comes first, the peptide text is derived from it. [ ]: non-standard residue; d: D form. The star is where a group is joined. dChg = N[C@@H](C(=O)O)C1CCCCC1; Boc = CC(C)(C)OC(=O)*
Selectivity ratio below 4 gives criterion not met; Selectivity ratio at or above it gives criterion met.

Example results:
C[C@H](C(=O)N1CCC[C@H]1C(=O)NC(C=O)CCCN=C(N)N)c1ccccc1 (stereo partly drawn) | criterion met
CN[C@@H](C(=O)N1CCC[C@H]1C(=O)N[C@H](C=O)CCCN=C(N)N)c1ccccc1 | criterion met
CC[C@H](C(=O)N1CCC[C@H]1C(=O)NC(C=O)CCCN=C(N)N)c1ccccc1 (stereo partly drawn) | criterion met
CC(C)(C)OC(=O)N[C@@H](C(=O)N1CCC[C@H]1C(=O)N[C@H](C=O)CCCN=C(N)N)C1CCCCC1 (Boc-[dChg]-Pro-Arg-aldehyde) | criterion met

Exam item: Decide: is the reported value of Selectivity ratio for CC(C)(C)OC(=O)N[C@@H](C(=O)N1CCC[C@H]1C(=O)N[C@H](C=O)CCCN=C(N)N)c1ccsc1 equal to or greater than 4?
Marked response: criterion not met

Exam item: What do we get for CO[C@H](C(=O)N1CCC[C@H]1C(=O)NC(C=O)CCCN=C(N)N)c1ccccc1 (stereo partly drawn) ?
Marked response: criterion met
